Biological target: Butyrophilin subfamily 3 member A1 (Homo sapiens, UniProt O00481)
Sequence (O00481 whole entry): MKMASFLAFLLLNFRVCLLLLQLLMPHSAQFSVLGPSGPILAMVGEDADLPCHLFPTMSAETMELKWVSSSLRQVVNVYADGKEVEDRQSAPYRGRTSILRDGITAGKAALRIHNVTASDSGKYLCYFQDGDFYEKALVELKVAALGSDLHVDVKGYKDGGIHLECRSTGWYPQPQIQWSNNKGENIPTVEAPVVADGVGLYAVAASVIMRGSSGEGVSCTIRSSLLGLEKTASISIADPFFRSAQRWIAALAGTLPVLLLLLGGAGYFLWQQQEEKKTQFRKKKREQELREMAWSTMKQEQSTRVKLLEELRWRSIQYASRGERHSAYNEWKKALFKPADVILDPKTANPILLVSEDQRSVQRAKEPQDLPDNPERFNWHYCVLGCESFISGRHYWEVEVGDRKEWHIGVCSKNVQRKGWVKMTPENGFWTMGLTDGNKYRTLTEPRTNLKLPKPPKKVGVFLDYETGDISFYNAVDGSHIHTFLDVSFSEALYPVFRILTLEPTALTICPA
Experiment: Activation of butyrophilin 3A1 in human K562 cells assessed as interferon-gamma production pretreated for 15 mins followed by HMBPP-treated Vgamma9Vdelta2 T cells addition and measured after 20 hrs by ELISA
Format: cell-based
Could you please mark criterion met for values of EC50 below 6 µM and criterion not met for values at or above it?

compound=CCOC(=O)[C@@H](C)N[P@@](=O)(CC/C=C(\C)CO)Oc1ccccc1 label_class="criterion met"
compound=CCOC(=O)[C@H](C)N[P@](=O)(CC/C=C(\C)CO)Oc1ccccc1 label_class="criterion met"
compound="CCOC(=O)CNP(=O)(CC/C=C(\\C)CO)Oc1ccccc1 (racemic)" label_class="criterion met"
compound=CCOC(=O)[C@H](C)N[P@@](=O)(CC/C=C(\C)CO)Oc1ccccc1 label_class="criterion met"
compound=C/C(=C\CCP(=O)(O)OP(=O)(O)O)CO label_class="criterion not met"
compound=O=P(O)(O)C(O)(Cn1ccnc1)P(=O)(O)O label_class="criterion not met"

---

Molecular target: Butyrophilin subfamily 3 member A1 (Homo sapiens, UniProt O00481)
Experiment: Activation of butyrophilin 3A1 in human K562 cells assessed as interferon-gamma production pretreated for 60 mins followed by HMBPP-treated Vgamma9Vdelta2 T cells addition and measured after 20 hrs by ELISA
Type: cell-based
outcome-measure: EC50 (nM)

compound=CCOC(=O)[C@H](C)N[P@@](=O)(CC/C=C(\C)CO)Oc1ccccc1 quantity_unit=nM value_observed=79
compound=CCOC(=O)[C@@H](C)N[P@](=O)(CC/C=C(\C)CO)Oc1ccccc1 quantity_unit=nM value_observed=2000
compound=CCOC(=O)[C@@H](C)N[P@@](=O)(CC/C=C(\C)CO)Oc1ccccc1 quantity_unit=nM value_observed=1500
compound=CCOC(=O)[C@H](C)N[P@](=O)(CC/C=C(\C)CO)Oc1ccccc1 quantity_unit=nM value_observed=160
compound="CCOC(=O)CNP(=O)(CC/C=C(\\C)CO)Oc1ccccc1 (racemic)" quantity_unit=nM value_observed=230
compound="O=P(O)(O)C(O)(Cn1ccnc1)P(=O)(O)O [ZOLEDRONIC ACID]" quantity_unit=nM value_observed=79000
compound=C/C(=C\CCP(=O)(O)OP(=O)(O)O)CO quantity_unit=nM value_observed=1200

---

Target: Butyrophilin subfamily 3 member A1 (Homo sapiens)
Experiment: Activation of butyrophilin 3A1 in human K562 cells assessed as interferon-gamma production pretreated for 240 mins followed by HMBPP-treated Vgamma9Vdelta2 T cells addition and measured after 20 hrs by ELISA
Type: cell-based
Could you please mark Y for values of EC50 below 300 nM and N for values at or above it?

compound=CCOC(=O)[C@@H](C)N[P@](=O)(CC/C=C(\C)CO)Oc1ccccc1 label_class=N
compound=CCOC(=O)[C@@H](C)N[P@@](=O)(CC/C=C(\C)CO)Oc1ccccc1 label_class=N
compound="CCOC(=O)CNP(=O)(CC/C=C(\\C)CO)Oc1ccccc1 (racemic)" label_class=Y
compound=C/C(=C\CCP(=O)(O)OP(=O)(O)O)CO label_class=Y
compound=CCOC(=O)[C@H](C)N[P@](=O)(CC/C=C(\C)CO)Oc1ccccc1 label_class=Y
compound=CCOC(=O)[C@H](C)N[P@@](=O)(CC/C=C(\C)CO)Oc1ccccc1 label_class=Y
compound="O=P(O)(O)C(O)(Cn1ccnc1)P(=O)(O)O [ZOLEDRONIC ACID]" label_class=N
